biological target: SEAP-His (Homo sapiens, UniProt P05187); test: Selectivity ELISA of humanized antibodies for human Eph receptor; format: binding; settings: coated protein 1 nM
Sequence (P05187 23-511 limits assumed): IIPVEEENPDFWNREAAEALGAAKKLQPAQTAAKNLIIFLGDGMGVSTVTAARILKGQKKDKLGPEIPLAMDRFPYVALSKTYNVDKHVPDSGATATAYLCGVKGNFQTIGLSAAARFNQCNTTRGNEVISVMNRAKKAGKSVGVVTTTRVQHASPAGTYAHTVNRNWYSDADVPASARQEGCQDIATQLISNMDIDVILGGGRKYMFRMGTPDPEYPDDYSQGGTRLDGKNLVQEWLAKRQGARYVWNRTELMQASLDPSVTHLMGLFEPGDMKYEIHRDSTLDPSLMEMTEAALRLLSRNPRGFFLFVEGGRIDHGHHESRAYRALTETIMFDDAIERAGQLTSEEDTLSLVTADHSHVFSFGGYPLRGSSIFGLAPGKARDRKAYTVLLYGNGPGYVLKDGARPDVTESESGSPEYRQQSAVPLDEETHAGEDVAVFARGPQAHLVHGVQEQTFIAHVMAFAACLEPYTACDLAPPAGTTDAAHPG
Recorded SEAP-His: absorbance at 450 nm, percentage with respect to hEphA4-SEAP-His as 100% for the following molecules
State just the number; it will be interpreted in %.

[[record]]
molecule = "136 (antibody, V domains shown, synthetic humanized antibody heavy chain variable region sequence; synthetic humanized antibody light chain variable region sequence) VH: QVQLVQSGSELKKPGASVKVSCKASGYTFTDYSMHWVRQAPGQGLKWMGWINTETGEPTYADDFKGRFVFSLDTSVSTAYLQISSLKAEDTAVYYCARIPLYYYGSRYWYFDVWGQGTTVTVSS VL: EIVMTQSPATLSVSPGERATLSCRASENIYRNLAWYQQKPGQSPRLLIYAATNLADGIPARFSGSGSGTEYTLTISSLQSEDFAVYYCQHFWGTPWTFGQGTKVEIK"
value_unit = "%"
measurement = 5.2


Exercise: Data request, read-out SEAP-His: absorbance at 450 nm, percentage with respect to hEphA4-SEAP-His as 100%, for 155 (antibody, V domains shown, synthetic humanized antibody heavy chain variable region sequence; synthetic humanized antibody light chain variable region sequence) VH: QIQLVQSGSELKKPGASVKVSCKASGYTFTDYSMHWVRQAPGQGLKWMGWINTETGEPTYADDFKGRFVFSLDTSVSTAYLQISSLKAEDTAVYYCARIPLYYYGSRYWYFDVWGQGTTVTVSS VL: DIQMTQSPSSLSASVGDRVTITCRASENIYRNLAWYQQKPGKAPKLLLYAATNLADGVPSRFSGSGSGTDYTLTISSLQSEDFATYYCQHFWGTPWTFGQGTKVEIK
Key: 5.8
